src = ChEMBL document CHEMBL1201862

Tested on: MDA-N
Test: NCI tumour cell line growth inhibition, 48 h
Activity calls are given as the source filed them. Cut-off read from the data, not from the text of the source: active = GI50 up to about 1.1 µM and inactive = higher.

COMPOUND: O=c1c2cc(I)ccc2nc(S)n1Cc1ccccc1
GI50: 9.2 µM (inactive)
//
COMPOUND: CCN(CC)/[N+]([O-])=N/OCOC
GI50: > 100 µM (inactive)
//
COMPOUND: COc1cccc(CC(=O)N2CCN(CCCc3ccccc3)CC2)c1
GI50: 90.8 µM (inactive)
//
COMPOUND: CCc1c(Cc2cc(C)cc(C)c2)n2c(nc1=O)SCC2CBr (stereo not drawn)
GI50: > 50 µM (inactive)
//
COMPOUND: CC(C)(C)OC(=O)N1CCCC1=O
GI50: > 10 µM (inactive)
//
COMPOUND: O=C(N/N=C/c1ccc([N+](=O)[O-])cc1)Nc1ccc(C(=O)O)cc1
GI50: 30.5 µM (inactive)
//
COMPOUND: Nc1ncnc2c1ncn2C1OC(CO)=CC1O (stereo not drawn)
GI50: > 37.5 µM (inactive)
//
COMPOUND: COC(=O)C1=C(C(=O)OC)SC2(S1)C1=C(CCCC1)SC(C(=O)OC)=C2C(=O)OC
GI50: 3.9 µM (inactive)

----------
System: SR
Assay: NCI tumour cell line growth inhibition, 48 h
Calls of active or inactive are those of the source. Rule as the data show it: active = GI50 up to about 1.1 µM and inactive = higher.
Outcome codes: active, inactive

COMPOUND: Cc1c(C)n(-c2ccccc2)c2nc(S(C)(=O)=O)nc(S(C)(=O)=O)c12
CATEGORY LABEL: active
//
COMPOUND: Cc1ccc(-c2c3c(n(C4OC(CO)C(O)C(O)C4O)c(=S)c2C#N)CC(C)(C)CC3=O)cc1 (stereo not given)
CATEGORY LABEL: inactive
//
COMPOUND: COC(=O)[C@]12CC[C@H]3CN(S(=O)(=O)c4ccc(C)cc4)[C@H]([C@H]31)[C@H](c1ccco1)N2S(=O)(=O)c1ccc(C)cc1
CATEGORY LABEL: inactive
//
COMPOUND: COc1cccc(OC)c1/C=C1\OC(=O)c2cccc(OC)c21
CATEGORY LABEL: active
//
COMPOUND: CN1CC[C@@]2(c3cccc(O)c3)CC(=O)/C(=C/c3ccccc3)[C@H]1C2.[O-][Cl+3]([O-])([O-])O
CATEGORY LABEL: inactive
//
COMPOUND: Cc1ccc(N/C(Sc2ccccc2)=C(/C(Cl)=C(Cl)Cl)[N+](=O)[O-])c(C)c1
CATEGORY LABEL: inactive
//
COMPOUND: CCCC[C@@H](C)/C=C1\CN2CCC[C@H]2[C@@](C)(OCc2ccccc2)[C@@H]1O
CATEGORY LABEL: inactive
//
COMPOUND: N#CC1(C=O)c2ccccc2C=CN1C(=O)c1ccccc1 (stereo not given)
CATEGORY LABEL: inactive
//
COMPOUND: CC(=O)O[C@H]1CC[C@@]2(C)C(=CC[C@H]3[C@@H]4C[C@H](N5CCCC5)[C@H](OC(C)=O)[C@@]4(C)CC[C@@H]32)C1
CATEGORY LABEL: inactive
//
COMPOUND: O=C1C2C3C=C4c5ccccc5N(c5ccccc5)C4(C2C(=O)N1c1ccc(Cl)cc1)[C@H]1C(=O)N(c2ccc(Cl)cc2)C(=O)[C@@H]31 (stereo not given in full)
CATEGORY LABEL: inactive
//
COMPOUND: CN(C)CC(C)(C)CN1c2ccccc2Sc2ccccc21
CATEGORY LABEL: inactive
//
COMPOUND: S=C1Cc2c(-c3ccccc3)cc(-c3ccc(Cl)cc3)nc2-c2ccccc2N1
CATEGORY LABEL: inactive
//
COMPOUND: O=C(Nn1c(-c2ccccc2)nc2ccccc2c1=O)c1ccccn1
CATEGORY LABEL: inactive
//
COMPOUND: Nc1nc(N)nc(CCCCc2nc(N)nc(N)n2)n1
CATEGORY LABEL: inactive
//
COMPOUND: Nc1ncnc2c1ncn2C1OC(CO)=CC1O (stereo not given)
CATEGORY LABEL: inactive
//
COMPOUND: COc1cccc(C2c3cc4c(cc3OC(N3CCCC3)C2c2ccccc2)OCO4)c1O (stereo not given)
CATEGORY LABEL: inactive
//
COMPOUND: CCCC(=O)OCC1OC(n2cc(F)c(=O)[nH]c2=O)CC1O (stereo not given)
CATEGORY LABEL: active
//
COMPOUND: CCOP(=O)(OCC)/C(C#N)=C/c1cnc[nH]1
CATEGORY LABEL: inactive
//
COMPOUND: COC(=O)[C@@H]1C[C@@H](O)CN1C(=O)c1ccc([N+](=O)[O-])cc1[N+](=O)[O-]
CATEGORY LABEL: inactive
//
COMPOUND: COc1ccc(C2=Cc3nc2c(-c2ccccc2)c2ccc([nH]2)c(-c2ccccc2)c2nc(c(-c4ccccc4)c4ccc([nH]4)c3-c3ccccc3)C=C2)cc1
CATEGORY LABEL: inactive
//
COMPOUND: Cc1cc(S(=O)(=O)/N=C(\NN)NCC(=O)NN)c(S)cc1Cl
CATEGORY LABEL: inactive
//
COMPOUND: CC1OC(n2cc(C(F)(F)F)c(=O)[nH]c2=O)C=CC1=O (stereo not given)
CATEGORY LABEL: inactive
//
COMPOUND: O=[N+]([O-])c1c2nc3n(c2cc2c1nc1n2CCC1)CCC3
CATEGORY LABEL: inactive
//
COMPOUND: N#CC(c1ccccn1)c1nc2ccccc2[nH]1 (stereo not given)
CATEGORY LABEL: inactive
//
COMPOUND: COc1cc([C@@H]2c3cc4c(cc3[C@@H](Nc3ccccc3C(=O)c3ccccc3)[C@H]3COC(=O)[C@H]23)OCO4)cc(OC)c1OC
CATEGORY LABEL: active
